Values compiled from patent US20070020327A1.

- measurement.target: HLA-A*0202 (human)
- method.description: competition with 125I standard peptide for purified HLA; gel filtration
- test.conditions: remark: other sources report otherwise
Flag rule - IC50 less than 0.9 nM flags Criterion met; the remaining entries get Criterion not met.

LLSNDMCARV (modifications not checked) [Peptide 1418.53 … (HuK2.178.V10)]	Criterion met

# input Please state whether IC50 is below 0.9 nM for HLLSNDMCV (modifications not checked) [Peptide 1418.20 … (HuK2.177.V9)]
# output Criterion not met

# input Now the binder LLFFWLDRSV (modifications not checked) [Peptide 1097.09 … (PAP.21)]
# output Criterion met

# input # repeat for ALFPPEGVSV (modifications not checked) [Peptide 1419.61 … (PAP.122.V10)]
# output Criterion not met
